molecular target: Factor X (FX), P00742
Sequence (P00742 whole entry, looked up): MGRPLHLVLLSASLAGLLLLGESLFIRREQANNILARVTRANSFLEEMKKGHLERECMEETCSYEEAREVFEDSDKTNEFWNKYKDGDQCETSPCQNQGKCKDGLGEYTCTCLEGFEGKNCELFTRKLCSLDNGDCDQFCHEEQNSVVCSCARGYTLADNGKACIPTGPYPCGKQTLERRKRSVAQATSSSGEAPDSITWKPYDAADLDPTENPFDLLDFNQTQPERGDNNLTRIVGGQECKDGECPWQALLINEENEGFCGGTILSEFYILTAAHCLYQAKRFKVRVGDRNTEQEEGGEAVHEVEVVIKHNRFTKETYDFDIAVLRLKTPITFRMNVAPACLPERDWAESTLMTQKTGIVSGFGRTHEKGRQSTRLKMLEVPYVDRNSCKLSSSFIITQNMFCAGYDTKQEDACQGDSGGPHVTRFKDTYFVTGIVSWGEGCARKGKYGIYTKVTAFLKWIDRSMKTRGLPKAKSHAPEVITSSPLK
reported.metric: kcat of FX activation by FIXa in the Xase complex (FVIIIa, PC/PS vesicles, Ca2+) (s⁻¹)
Express the result in s⁻¹ but write the number alone.

Some proteins with known kcat of FX activation by FIXa in the Xase complex (FVIIIa, PC/PS vesicles, Ca2+) results, for comparison:
Q: Using the record for FIXa-Y155F/K247N/N249S/N260S (protein) chain 1: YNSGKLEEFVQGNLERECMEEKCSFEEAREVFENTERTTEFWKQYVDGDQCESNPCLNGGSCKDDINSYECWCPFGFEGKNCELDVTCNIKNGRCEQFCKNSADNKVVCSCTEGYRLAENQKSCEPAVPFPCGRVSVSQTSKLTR chain 2: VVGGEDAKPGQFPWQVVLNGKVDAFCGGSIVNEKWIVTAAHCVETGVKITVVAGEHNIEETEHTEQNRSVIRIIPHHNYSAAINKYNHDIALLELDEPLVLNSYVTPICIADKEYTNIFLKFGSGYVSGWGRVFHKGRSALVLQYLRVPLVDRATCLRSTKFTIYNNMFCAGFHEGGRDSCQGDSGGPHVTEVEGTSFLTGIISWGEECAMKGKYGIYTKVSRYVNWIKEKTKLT , report its kcat of FX activation by FIXa in the Xase complex (FVIIIa, PC/PS vesicles, Ca2+).
A: 1.8

Q: Using the record for FIXa-Y155F/R318Y/R338E/N346D/R403E/E410N (protein) chain 1: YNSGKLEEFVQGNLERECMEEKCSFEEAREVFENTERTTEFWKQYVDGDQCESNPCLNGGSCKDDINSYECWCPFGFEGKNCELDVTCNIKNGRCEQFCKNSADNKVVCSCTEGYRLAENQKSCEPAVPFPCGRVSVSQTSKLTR chain 2: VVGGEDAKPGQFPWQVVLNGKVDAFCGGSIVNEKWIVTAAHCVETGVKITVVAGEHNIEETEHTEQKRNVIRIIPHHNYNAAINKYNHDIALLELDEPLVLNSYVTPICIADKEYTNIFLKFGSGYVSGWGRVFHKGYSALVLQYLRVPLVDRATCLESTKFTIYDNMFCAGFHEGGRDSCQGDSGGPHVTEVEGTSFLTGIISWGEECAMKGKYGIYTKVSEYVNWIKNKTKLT , report its kcat of FX activation by FIXa in the Xase complex (FVIIIa, PC/PS vesicles, Ca2+).
A: 6.4

Q: Using the record for FIXa-Y155F/R318Y/R338E/T343R/R403E/E410N (protein) chain 1: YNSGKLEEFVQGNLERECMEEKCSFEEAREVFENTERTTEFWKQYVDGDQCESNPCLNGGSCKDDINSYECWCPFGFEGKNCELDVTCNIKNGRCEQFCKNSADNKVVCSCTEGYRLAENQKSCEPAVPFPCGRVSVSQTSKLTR chain 2: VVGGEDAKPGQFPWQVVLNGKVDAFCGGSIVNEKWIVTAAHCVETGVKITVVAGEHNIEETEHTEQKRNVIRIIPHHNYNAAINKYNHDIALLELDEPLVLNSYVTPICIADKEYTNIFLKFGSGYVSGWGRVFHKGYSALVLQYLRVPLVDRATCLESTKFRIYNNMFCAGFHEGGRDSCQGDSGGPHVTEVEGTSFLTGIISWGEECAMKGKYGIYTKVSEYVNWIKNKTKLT , report its kcat of FX activation by FIXa in the Xase complex (FVIIIa, PC/PS vesicles, Ca2+).
A: 7.8

Next:
Q: Using the record for FIXa-K247N/N249S/R318Y/R338E/T343R/R403E/E410N (protein) chain 1: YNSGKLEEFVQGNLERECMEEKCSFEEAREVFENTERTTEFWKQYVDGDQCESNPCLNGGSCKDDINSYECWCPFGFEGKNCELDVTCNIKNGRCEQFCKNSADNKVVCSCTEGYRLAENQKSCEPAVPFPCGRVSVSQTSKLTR chain 2: VVGGEDAKPGQFPWQVVLNGKVDAFCGGSIVNEKWIVTAAHCVETGVKITVVAGEHNIEETEHTEQNRSVIRIIPHHNYNAAINKYNHDIALLELDEPLVLNSYVTPICIADKEYTNIFLKFGSGYVSGWGRVFHKGYSALVLQYLRVPLVDRATCLESTKFRIYNNMFCAGFHEGGRDSCQGDSGGPHVTEVEGTSFLTGIISWGEECAMKGKYGIYTKVSEYVNWIKNKTKLT , report its kcat of FX activation by FIXa in the Xase complex (FVIIIa, PC/PS vesicles, Ca2+).
A: 10.6

Attribution: patent US20210230570
